B1: MATN2 (parent)
chain: VNVPGSFVCQCYSGYALAEDGKRC

Variants of: B1
Assay: protein stability index of a GFP-peptide fusion (GPS, HEK-293T) (PSI 1-6); higher = more stable;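 also: lentivirally expressed fusions sorted by FACS into six bins by GFP to DsRed ratio, PSI derived from sequencing read proportions per bin multiplied by bin number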
Conditions: c terminus: a fixed tail appended

{"columns": ["variant_name", "protein stability index"],
 "data": [
  ["P4L", 1.99],
  ["S13A", 2.39],
  ["E19I", 2.77],
  ["C11Q", 2.94],
  ["V3P", 2.08],
  ["Q10G", 1.65],
  ["N2I", 1.75],
  ["C24Y", 2.41],
  ["R23P", 2.07],
  ["C11Y", 2.1],
  ["G21R", 2.08],
  ["V8E", 2.53],
  ["K22S", 1.7],
  ["A18R", 2.38],
  ["C9W", 2.21],
  ["D20C", 3.42],
  ["S6F", 3.53],
  ["G5T", 1.87],
  ["D20Y", 1.05],
  ["V3D", 2.11],
  ["K22E", 2.03],
  ["N2S", 1.82],
  ["Q10C", 1.7],
  ["R23I", 1.67],
  ["R23Q", 3.67],
  ["S13Y", 1.9],
  ["K22Y", 1.47],
  ["S6V", 1.84],
  ["N2T", 2.35],
  ["K22G", 2.43],
  ["A16F", 2.42],
  ["L17V", 2.3],
  ["S13P", 2.47],
  ["A16D", 2.17],
  ["G5L", 1.06],
  ["D20P", 2.42],
  ["V1L", 2.17],
  ["L17N", 1.91]
]}
